assayed-system: T1, EsCas13d, nuclease-dead (Eubacterium siraeum, UniProt B0MS50, R295A;H300A;R849A;H854A)
T1 sequence: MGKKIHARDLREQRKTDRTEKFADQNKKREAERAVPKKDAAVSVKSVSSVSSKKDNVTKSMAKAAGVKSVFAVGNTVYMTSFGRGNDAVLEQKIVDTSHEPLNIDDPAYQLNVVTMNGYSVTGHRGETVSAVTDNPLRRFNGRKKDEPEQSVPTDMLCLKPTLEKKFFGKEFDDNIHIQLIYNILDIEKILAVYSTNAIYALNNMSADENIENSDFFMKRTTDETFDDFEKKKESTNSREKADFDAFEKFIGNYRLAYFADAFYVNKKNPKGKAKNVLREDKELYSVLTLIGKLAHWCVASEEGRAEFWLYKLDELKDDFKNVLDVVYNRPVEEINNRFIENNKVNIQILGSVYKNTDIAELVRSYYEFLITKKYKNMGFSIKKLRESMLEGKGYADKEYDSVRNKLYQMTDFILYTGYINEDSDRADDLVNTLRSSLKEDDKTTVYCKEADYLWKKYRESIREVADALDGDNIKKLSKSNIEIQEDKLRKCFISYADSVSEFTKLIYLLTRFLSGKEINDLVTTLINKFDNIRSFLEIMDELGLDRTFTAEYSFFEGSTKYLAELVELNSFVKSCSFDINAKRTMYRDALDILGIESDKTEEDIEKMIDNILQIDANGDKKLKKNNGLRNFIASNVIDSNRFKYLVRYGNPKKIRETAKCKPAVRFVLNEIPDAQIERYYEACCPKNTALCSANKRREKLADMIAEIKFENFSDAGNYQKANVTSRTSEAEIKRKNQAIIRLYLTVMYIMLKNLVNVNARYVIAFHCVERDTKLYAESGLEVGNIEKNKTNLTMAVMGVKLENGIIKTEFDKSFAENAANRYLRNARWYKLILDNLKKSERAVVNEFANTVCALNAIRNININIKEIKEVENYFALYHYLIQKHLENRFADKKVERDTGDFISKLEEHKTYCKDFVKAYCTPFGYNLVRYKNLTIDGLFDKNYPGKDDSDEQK
assay-summary: crRNA (strand 1, pre-loaded); Mg2+; 40 mM Tris-HCl pH 7.5, 150 mM NaCl, 6 mM MgCl2, 1 mM DTT, 0.1% Tween-20, 0.2 mg/ml BSA; 25 C; 10 min per concentration, then washed
condition-summary: tags: His6-TwinStrep-SUMO cleaved; N-terminal SNAP kept (SNAP-Surface 488); label: 3' end held by stalled T7 RNA polymerase
readout-name: pKd
To interpret pKd, take it as minus log10 of a concentration measured in moles per litre.

## Input Report pKd, nothing else, for this binder: target 1 G15U,A16G (mixed) RNA 1: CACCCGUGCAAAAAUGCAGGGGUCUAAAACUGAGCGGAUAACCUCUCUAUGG RNA 2: GGGAAUGGAUCCACAUCUACGAAUUCGUACCAUAGGUAGGUUAUCCGCUCACCGAGAUCGGAAGAGCACACGU
## Output 7.57

## Input Supply pKd value. Item: target 1 C2U,G17A (mixed) RNA 1: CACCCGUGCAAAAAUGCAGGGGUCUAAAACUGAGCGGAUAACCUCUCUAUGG RNA 2: GGGAAUGGAUCCACAUCUACGAAUUCGUACCAUAAAGAGGUUAUCCGCUUACCGAGAUCGGAAGAGCACACGU
## Output 7.46

The reported measurements were obtained from paper PMC10786891.
